Data provenance is a melting point compilation (Tetko et al.; mined from patent text by program, amines drawn as free bases though some values may be those of a salt).

Overview of reported melting point across a group of compounds:

Sample answers from the record:
Cc1ccc(C(=O)Nc2c(NC(=O)CN3CCN(CCO)CC3)ccc3c2C(=O)c2ccccc2C3=O)cc1; 210 to 211 °C
COc1cc2c(c(C)c1OC)CC(C)CC2=O (stereo unspecified); 106 to 108 °C
C/C(=N\O)c1cccc(NC(=O)NCC(=O)N2[C@@H](C(=O)OC(C)(C)C)CC[C@H]2c2ccccc2)c1 (racemic); 118 °C
CCCCCCCCCCc1ccc(NC(=O)c2cc(Cl)cc(Cl)c2O)cc1; 90 to 91 °C
CSC1COc2cc(NS(C)(=O)=O)c(Oc3ccccc3)cc2C1=O (stereo unspecified); 126 to 128 °C
O=C(O)CCC1(C(=O)O)NCC(=O)N1 (stereo unspecified); 202 to 205 °C

Recorded melting point for O=c1ccc(C(F)(F)F)cn1Cc1ccccc1NCCO , please?
114 to 115 °C

Recorded melting point for CSc1ccc(C(=O)O)c([N+](=O)[O-])c1 , please?
165 to 168 °C

Recorded melting point for CC(O)c1cn(C2CCc3c(F)cc(F)cc3C2)c(=S)[nH]1 (stereo unspecified) , please?
210 to 211 °C

Recorded melting point for CC(=O)NCCCCC1Cc2ccccc2C1 , please?
83 to 84 °C

Recorded melting point for COc1cc2c(cc1Cl)NC(=O)C2=NNc1ccc(S(N)(=O)=O)cc1 , please?
> 250 °C

Recorded melting point for Cc1ccc(C2C3=C(CC(C)(C)CC3=O)NC3=C2C(=O)CC(C)(C)C3)cc1C , please?
> 300 °C

Recorded melting point for CCCCCCCCCCCCOc1cccc(C2=C(O)C(O)(Cc3ccccc3)N(C)C2=O)c1 (stereo unspecified) , please?
110 to 111 °C

Recorded melting point for COc1ccccc1N1CCN(CNC(=O)c2ccc(Cl)cc2)CC1 , please?
145 to 147 °C

Recorded melting point for CCCCOc1ccc(C(=O)N[C@@H]2COc3cccc(N4CCN(C)CC4)c3C2)cc1 , please?
192 to 194 °C

Recorded melting point for CCNC1=CC(=O)c2c(OC)ccc(OC)c2C1=O , please?
172 to 173 °C

Recorded melting point for CC(C)COC(=O)N1CCN(C2=C(Cl)C(=O)c3ccccc3C2=O)CC1 , please?
92 to 94 °C

Recorded melting point for N#Cc1cc(C(=O)Cl)n(/C=C/c2ccccc2)c1 , please?
119 to 121 °C

Recorded melting point for COC(=O)Nc1cc2c(=O)n(NS(C)(=O)=O)c(=O)[nH]c2cc1C(F)(F)F , please?
232 to 240 °C

Recorded melting point for Cc1ccccc1OCCC1CCN(c2cc(Cl)nnc2Cl)CC1 , please?
106 to 108 °C

Recorded melting point for O=C(Oc1cc([N+](=O)[O-])cc([N+](=O)[O-])c1O)c1ccccc1 , please?
150 to 152 °C

---

readout: melting point

CCCCCCc1cc2c(s1)-n1c(C)nnc1CN=C2c1ccccc1Cl; 111 to 113 °C
C[C@@H](C(N)=O)c1ccc(NS(=O)(=O)c2ccccc2)cc1; 152 to 153 °C
CCOC(=O)c1csc(NC(=O)c2cc(OC)c(OC)cc2O)n1; 218 to 220 °C
O=C1Nc2ccccc2C(c2ccccc2)CC1Br (stereo not given); 191 to 192 °C
OCCc1ccc(Nc2ncc3c(n2)-c2ccccc2C(c2ccc(Cl)c(Cl)c2)C3)cc1 (stereo not given); 94 to 96 °C

Recorded melting point for CC(=O)c1oc2c(sc3ccccc32)c1O , please?
196 to 197 °C

Recorded melting point for C#CCOc1ccc2c(C)cc(=O)oc2c1C(=O)C=Cc1ccc(F)cc1 , please?
185 to 186 °C

Recorded melting point for CSC(C[C@@H]1CC(=O)N1[Si](C)(C)C(C)(C)C)(SC)SC , please?
61 to 62 °C

Recorded melting point for COC(=O)Cc1cc2c(s1)-n1c(C)nnc1C(C)N=C2c1ccccc1Cl (stereo not given) , please?
105 to 106 °C

Recorded melting point for CCOc1ccc(C2=NNC(=O)CC2)c(OCC)c1 , please?
148 to 150 °C

---

readout: melting point

Sample answers from the record:
CC=CCOc1c(I)cc(C(C)O)nc1Cl (configuration not stated); 61 to 62.5 °C
CCCn1nc2c(N)nc3ccccc3c2c1CCCc1cc(-c2ccccc2)no1; 176 to 178 °C
Cc1[nH]c2ccc(OS(=O)(=O)c3c(F)cccc3F)cc2c1C1CCN(C)CC1; 138 °C
Cc1ccc2nc(Cl)c(C#N)c(Cl)c2c1; 159 °C
CC(=O)NCC1CC(c2ccc(-n3ccnc3)c(F)c2)=NO1 (configuration not stated); 155 to 156 °C

Please find the next compound below.
Recorded melting point for CCOC(=O)c1cc2c([nH]1)CN(C(=O)OCC(Cl)(Cl)Cl)CC2 , please?
126 to 127 °C

---

readout: melting point (°C)
// return numeric value only (unit: °C, not printed)

Sample answers from the record:
COCCOc1ccc(/C=C/C(=O)NS(=O)(=O)c2ccccc2)c(Oc2ncc(C(F)(F)F)cc2Cl)c1; 136
Cc1ccc2c(Sc3cc(Cl)cc(Cl)c3)c(CC(N)=O)[nH]c2c1; 197
CC(=O)N[C@@H](Cc1cscn1)C(=O)O; 186
Cn1nc(-c2cc3c(cc2F)OCC(=O)N3)c(Cl)c1C(F)(F)F; 207
O=C(c1cccs1)c1cnn2c(-c3cccc(-c4cc[nH]n4)c3)ccnc12; 129
O=C(NCCCl)Oc1ccc(Cl)c2cccnc12; 146
CC(C)(C)OC(=O)Nc1ccc2nc(-c3cccnc3)nn2c1; 296

Please find the next compound below.
Recorded melting point for CC(=O)NC1C(O[Si](C)(C)C(C)(C)C)C=C(C(=O)O)OC1C(OCC(=O)O)C1COC(C)(C)O1 (stereo not given) , please?
130

---

readout: melting point

C[Si](C)(C)c1sccc1NC=O; 74 to 76 °C
CC(C)(C)Cc1c(C(C)(C)C)ssc1=S; 81 °C
COc1cc([C@@H]2SC[C@@H](c3cc(OC)c(O)c(OC)c3)S2)cc(OC)c1O (relative stereo); 169 to 170 °C
COc1c(C)c(Cc2ccc(Cl)cc2)c(OC)c2ccccc12; 101 to 102 °C
CNC(=O)CCCCCCCN(Cc1ccccc1)S(=O)(=O)c1ccc(Cl)c(COc2cccc3ccc(C)nc23)c1Cl; 120 °C

Recorded melting point for CCN1CCN(C2=Nc3cc(Cl)ccc3Sc3ccccc32)CC1 , please?
100 to 101 °C

Recorded melting point for COc1ccc(F)c(C(N)=O)c1 , please?
122 to 124 °C

Recorded melting point for ON=c1c2nccc3cccc(c32)n2cccc12 , please?
254 °C

Recorded melting point for COC(=O)c1ccccc1S(=O)(=O)NC(=O)n1nc(C)n(C2CCCC2)c1=O , please?
146 °C

Recorded melting point for OC(c1ccncc1)c1c[nH]c(-c2ccc(F)cc2)c1-c1ccncc1 (single isomer, unassigned; (+)) , please?
202 to 205 °C

---

Overview of reported melting point across a group of compounds:

Sample answers from the record:
COc1cc(NC(=O)Nc2ccccc2C)cc(OC)c1-c1ccc(C[C@H](NC(=O)c2c(Cl)cccc2Cl)C(=O)O)cc1; 194 to 195 °C
O=C(O)C=Cc1ccc(CCc2ccncc2)cc1; > 300 °C
CCOc1cc(-c2cc(C(F)F)n3ncc(C(=O)Nc4cccc(S(C)(=O)=O)c4)c3n2)ccc1C(F)(F)F; 211 °C

Please find the next compound below.
Recorded melting point for CN1CC(CCCl)N(C)c2nc3ccccc3n2C1=O (centres undefined) , please?
158 to 159 °C

---

readout: melting point

Sample answers from the record:
N#Cc1ccc2c(c1)CC(Br)C2=O (stereo unspecified); 115 to 118 °C
O=C1CCCc2nc3ccccc3c(NCc3cccc(F)c3)c21; 156 to 157 °C
CC12CCC3c4cc(N)c(OCc5ccccc5)cc4CCC3C1CCC2=O (stereo unspecified); 205 to 207 °C
Cc1nc(N)nc(N)c1-c1cc(Br)ccc1Cl; 212 to 216 °C

Recorded melting point for CCC(=O)c1ccc2cc(O)ccc2c1 , please?
158 to 159 °C

Recorded melting point for Cc1cccc2c(=O)n([C@H](C)[C@](O)(Cn3cncn3)c3ccc(F)cc3F)cnc12 , please?
141 to 144 °C

Recorded melting point for Cc1cccc2ncc(C(=O)N3CCCC3)c(=O)n12 , please?
132 to 134 °C

Recorded melting point for Cn1ncc2c(c1=O)SCCNC2Cc1ccc(Cl)cc1 (stereo unspecified) , please?
106 to 109 °C

---

Overview of reported melting point across a group of molecules:

CCN(C)c1nc2sc3c(NCc4ccco4)ncnc3c2c2c1CCC(C)(C)C2; 116 to 118 °C
CCOc1cc2c(c3c1OC(C)(C)C3)C(c1cccc(C(=O)NC)c1)=NC(C)(C)C2; 173 to 174 °C
Cc1ccc(-c2cccc(C(N)=NO)c2)cc1; 134 to 136 °C
CCCCc1nc2cnc3cccnc3c2n1CCCCNC(=O)OC(C)(C)C; 96 to 98 °C

Please find the next molecule below.
Recorded melting point for CNC1(c2ccccc2Cl)C(=O)Nc2ccc(C)cc21 (stereo not given) , please?
186 to 187 °C
